- Test system: PKN1
- test_parameters: concentration: 1 μM, replicates: in singlicate; n = 1;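 also: KINOMEscan kinase panel screen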
recorded_endpoint: %Inh (%)

1. O=C(Nc1n[nH]c2cc(-c3ccoc3)ccc12)C1CC1 :: 0
2. COc1cc(Nc2nccc(-c3c(-c4cccc(NC(=O)c5c(F)cccc5F)c4)nn4ccccc34)n2)cc(OC)c1OC :: 12
3. Cl.Cl.NCC(NCc1ccc(-c2ccnc3[nH]ccc23)s1)c1ccccc1 (stereo not shown) :: 30
4. COc1cc(Nc2nccc(N3CCC(NC(=O)c4cc5ccccc5s4)C3)n2)cc(OC)c1OC (stereo not shown) :: 0

###

Reported %Inh values for a set of molecules
- Test system: MAP3K1
- test_parameters: concentration: 1 μM, replicates: in singlicate; n = 1
recorded_endpoint: %Inh (%)

1) COc1cc(Nc2nccc(N3CCC(NC(=O)c4cc5ccccc5s4)C3)n2)cc(OC)c1OC (centres unmarked) :: 7
2) O=C(Nc1n[nH]c2nc(-c3ccc(O)cc3)ccc12)C1CC1 :: 10
3) COc1ccc(Nc2nccc(NCCNC(=O)c3cc4ccccc4s3)n2)cc1 :: 15
4) Clc1ccc(-c2nn3ncccc3c2-c2ccnc(Nc3ccc4c(c3)OCCO4)n2)cc1 :: 0
5) CCc1ccc(-c2ccc3c(c2)-c2c(cnn2C)S(=O)(=O)N3C)cc1 :: 34
6) Cn1cc(-c2ccc3c(c2)CCN3C(=O)Cc2cccc(F)c2)c2c(N)ncnc21 :: 15
7) c1ccc(Oc2ccc(Nc3ccnc4cc(-c5ccc(CNCCN6CCOCC6)o5)ccc34)cc2)nc1 :: 9
8) C[C@@H]1CC[C@@H](C(=O)Nc2ccccc2)CN1c1cc(-c2ccc3c(N)n[nH]c3c2)nc(N)n1 :: 0
